meta.source: the Immune Epitope Database (IEDB)

Target: HLA-B*46:01
Test: IEDB peptide-MHC binding, purified MHC/competitive/fluorescence; filed as Kd, often an IC50 or EC50 that approximates it; bounds were set here for any values at or beyond the usual limits of such assays
Settings: source organism: Cryptosporidium parvum Iowa II
readout_type: pKd
Answers are plain numbers, as −log10 of the molar value.

Item MSFSDTFEM has what recorded pKd?
6.69

---

Target: HLA-B*53:01
Experiment: IEDB peptide-MHC binding, purified MHC/competitive/fluorescence; bounds were set here for any values at or beyond the usual limits of such assays
Details: source organism: Homo sapiens
pIC50: −log10 of the molar value.
readout_type: pIC50

These recorded examples may help you get a feel for the data.
• ELFARSSDPR = ≤ 4.70
• LVTMGTGTFGR = ≤ 4.70

API: the following record is the query input.
Item RQSSGSSSSGF has what recorded pIC50?
≤ 4.70
